Target: HLA-DRB1*0401 (Homo sapiens (Human), UniProt P01903+P01911, A100K/A169T/DEL228-266/F76Y/I96L/K127E/L162R/M171V/N62H/P40V/Q125Y/R42H/S133A/S149N/S66Y/V115G/V209L/W38E)
Experiment: HLA-DR4 HTRF assay
Conditions: inhibition of loading of Alexa Fluor 647-labeled Cit-CII peptide onto HLA-DR4 (CLIP cleaved)
Consider the following molecules; for each one, report its IC50.

The cases that follow already have their IC50 on record.
Kindly note the recorded IC50 for Cc1c(O[C@@H](c2ccc(C(N)=O)cc2)c2ccccc2F)ccc2c1OCCC2=O (single isomer, unassigned) [Example 68b] , which is 5.4 µM

Recorded IC50 (molecule CCc1c(O[C@H](c2ccncc2)c2ccc(C(N)=O)cc2)ccc2c1OCCC2=O (single isomer, unassigned) [Example 73b] ): 0.6 µM

Notebook: NC(=O)c1ccc([C@H](Oc2ccc3c(c2Br)OCCC3=O)c2ccncc2)cc1 (single isomer, unassigned) [Example 102b] , IC50 read as > 89 µM

Entry Cc1cc2c(cc1O[C@@H](c1ccncc1)c1ccc(C(N)=O)cc1)OCCC2=O (single isomer, unassigned) [Example 49a] — recorded IC50 = 0.57 µM

IC50 for COc1cccc([C@H](Oc2ccc3c(c2)OCCC3=O)c2ccncc2)c1 (single isomer, unassigned) [Example 13a] is 2 µM

Could you report IC50 for every entry in the following list?
1. Cc1cc([C@H](Oc2ccc3c(c2C#N)OCCC3=O)c2ccc(C(N)=O)cc2)cc(C)n1 (single isomer, unassigned) [Example 110a]
2. Cc1c(O[C@@H](c2ccncc2)c2ccc(C(N)=O)cc2OCc2ccccc2)ccc2c1OCCC2=O (single isomer, unassigned) [Example 86b]
3. Cc1c(O[C@H]2CCCc3cc(C(N)=O)ccc32)ccc2c1OCCC2=O (single isomer, unassigned) [Example 123b]
4. Cc1c(O[C@@H](c2ccc(Cl)cc2)c2ccc(C(N)=O)cc2)ccc2c1OCCC2=O (single isomer, unassigned) [Example 57a]
5. CC(C)c1cc2c(cc1O[C@@H](c1ccncc1)c1ccc(C(N)=O)cc1)OCCC2=O (single isomer, unassigned) [Example 76a]
6. Cc1cc([C@@H](Oc2ccc3c(c2)OCCC3=O)c2ccc(C(N)=O)cc2)ccn1 (single isomer, unassigned) [Example 15b]
7. N#Cc1cc(O[C@@H](c2ccncc2)c2ccc(C(N)=O)cc2)cc2c1C(=O)CCO2 (single isomer, unassigned) [Example 101a]

1. 0.55 µM
2. 1 µM
3. 0.57 µM
4. 2.3 µM
5. 0.65 µM
6. 0.77 µM
7. 0.96 µM

Per the records, this molecule ( Cc1cnccc1[C@H](Oc1ccc2c(c1)OCCC2=O)c1ccc(C(N)=O)cc1 (single isomer, unassigned) [Example 21a] ) has IC50 equal to 1 µM
